Would you mind telling me the reported selectivity ratio of each entry?
experiment description: Selectivity index, ratio of CC50 for human MRC-5 SV2 cells to IC50 for antitrypanosomal activity against nifurtimox-sensitive Trypanosoma cruzi Tulahuen CL2 infected in human MRC-5 SV2 cells
Type: toxicity, cell-based
protocol conditions: read-out: Ratio CC50/IC50

Illustrative cases are given below, each with its answer.
Dear colleague, please send me the reported selectivity ratio for Nc1ncnc2c1c(-c1cc(F)c(Cl)c(F)c1)nn2[C@@H]1O[C@H](CO)[C@@H](O)[C@H]1O when you can.
> 17

State its selectivity ratio: Nc1ncnc2c1c(-c1ccccn1)nn2[C@@H]1O[C@H](CO)[C@@H](O)[C@H]1O
1

Look up and report measured selectivity ratio for this entry: Nc1ncnc2c1c(I)nn2[C@@H]1O[C@H](CO)[C@@H](O)[C@H]1O
2

Identify measured selectivity ratio associated with NCc1nn([C@@H]2O[C@H](CO)[C@@H](O)[C@H]2O)c2ncnc(N)c12
5

More entries:
Output selectivity ratio of O=c1[nH]cnc2c1cnn2[C@@H]1O[C@H](CO)[C@@H](O)[C@H]1O
9

====

Test system: Trypanosoma cruzi
experiment description: Antitrypanosomal activity against nifurtimox-sensitive Trypanosoma cruzi Tulahuen CL2 infected in human MRC-5 SV2 cells assessed as inhibition of parasite growth measured after 7 days by spectrophotometric analysis
Assay type: functional, organism-based
protocol conditions: Tulahuen CL2, MRC-5 SV2, 168 h
Exercise: for every item that follows, state its recorded pIC50.
Answers are plain numbers, as −log10 of the molar value.

Using the record for Nc1ncnc2c1c(-c1ccc(Cl)c(F)c1)nn2[C@@H]1O[C@H](CO)[C@@H](O)[C@H]1O , state its measured pIC50.
5.92

Indicate the recorded pIC50 value for this compound: Nc1ncnc2c1c(-c1ccc(Cl)s1)nn2[C@@H]1O[C@H](CO)[C@@H](O)[C@H]1O
5.59

Read off the recorded pIC50 for NC(=O)c1nn([C@@H]2O[C@H](CO)[C@@H](O)[C@H]2O)c2ncnc(N)c12
6.60

Name the recorded pIC50 of the compound listed here: Nc1ncnc2c1c(-c1ccc(Cl)cc1)nn2[C@H]1C[C@H](O)[C@@H](CO)O1
5.60

Supply pIC50 value. Item: Cc1nn([C@@H]2O[C@H](CO)[C@@H](O)[C@H]2O)c2ncnc(N)c12
5.33

Here is the next item to consider.
Recall and state the measured pIC50 for Nc1ncnc2c1c(I)nn2[C@@H]1O[C@H](CO)[C@@H](O)[C@H]1O .
4.90

====

System: Trypanosoma cruzi
experiment description: Antitrypanosomal activity against nifurtimox-sensitive Trypanosoma cruzi Tulahuen CL2 infected in human MRC-5 SV2 cells assessed as inhibition of parasite growth measured after 7 days by spectrophotometric analysis
Format: functional, organism-based
protocol conditions: Tulahuen CL2, MRC-5 SV2, 168 h
Lab note: cut-off is 10 µM. Strictly less in IC50 is T. Exactly 10 µM or more is F.

The examples below pair each entry with its known result.
In plain terms, does C#Cc1nn([C@@H]2O[C@H](CO)[C@@H](O)[C@H]2O)c2ncnc(N)c12 come in under 10 µM for IC50?
T

Please indicate whether the reported IC50 of Nc1ncnc2c1c(-c1ccc(F)c(Cl)c1)nn2[C@@H]1O[C@H](CO)[C@@H](O)[C@H]1O is strictly below 10 µM.
T

Continuing:
Check if IC50 falls below 10 µM for Nc1ncnc2c1c(C(=O)NCc1ccccc1)nn2[C@@H]1O[C@H](CO)[C@@H](O)[C@H]1O .
F

Is it true that IC50 reported for Nc1ncnc2c1c(-c1cccs1)nn2[C@@H]1O[C@H](CO)[C@@H](O)[C@H]1O is less than 10 µM?
F

====

experiment description: Cytotoxicity against human MRC-5 SV2 cells assessed as reduction in cell growth measured after 3 days by resazurin dye based fluorometric analysis
protocol conditions: time 3 day
For each record, write down the corresponding CC50 at 72 h.

Name the recorded CC50 at 72 h of the item Nc1ncnc2c1c(Br)nn2[C@@H]1O[C@H](CO)[C@@H](F)[C@H]1O in your answer.
0.23 µM

Entry Nc1ncnc2c1c(-c1ccccc1)nn2[C@@H]1O[C@H](CO)[C@@H](O)[C@H]1O needs its CC50 at 72 h filled in; supply it.
> 64 µM

Answer with the recorded CC50 at 72 h of N#Cc1cc(-c2ccc(-c3nn([C@@H]4O[C@H](CO)[C@@H](O)[C@H]4O)c4ncnc(N)c34)cc2C#N)ccc1Cl only.
> 64 µM

Supply measured CC50 at 72 h of Nc1ncnc2c1c(-c1ccc(Cl)cc1)nn2[C@@H]1O[C@H](CO)[C@@H](O)[C@H]1O in your reply.
> 64 µM

State, in one line, measured CC50 at 72 h of Nc1ncnc2c1c(-c1ccc(Cl)c(F)c1)nn2[C@@H]1O[C@H](CO)[C@@H](O)[C@H]1O
> 64 µM

Kindly indicate its recorded CC50 at 72 h. Item: NCc1nn([C@@H]2O[C@H](CO)[C@@H](O)[C@H]2O)c2ncnc(N)c12
59.3 µM

Give the reported value of CC50 at 72 h for this record: Nc1ncnc2c1c(/C=C/c1ccccc1)nn2[C@@H]1O[C@H](CO)[C@@H](O)[C@H]1O
> 64 µM

Write down CC50 at 72 h measured for item Cc1ccc(-c2nn([C@@H]3O[C@H](CO)[C@@H](O)[C@H]3O)c3ncnc(N)c23)s1
> 64 µM

Could you now look at the following compound, please?
Provide one value: measured CC50 at 72 h of O=c1[nH]cnc2c1c(Br)nn2[C@@H]1O[C@H](CO)[C@@H](O)[C@H]1O
> 64 µM

====

Tested on: UGT
experiment description: Metabolic stability of the compound in mouse liver microsomes S9 fraction assessed as UGT-mediated metabolism by measuring parent compound remaining at 5 uM measured after 30 mins in presence of UDPGA by UPLC-MS analysis
Type: ADME, subcellular
protocol conditions: read-out: Stabilty
measure name: remaining at 0.5 h, 5 µM (%)
Give bare numbers, in %.

Note remaining at 0.5 h, 5 µM for the molecule shown: Nc1ncnc2c1c(-c1ccc(Cl)cc1)nn2[C@@H]1O[C@H](CO)[C@@H](O)[C@H]1O
115

====

Please provide measured CC50 at 120 h for the entries that follow.
experiment description: Cytotoxicity against Swiss mouse peritoneal macrophages assessed as cell detachment, lysis and granulation measured after 5 days by microscopic analysis
Format: cell-based, Peritoneal macrophage
protocol conditions: time 5 day

In the examples that follow, each entry is paired with its recorded CC50 at 120 h.
For the compound Nc1ncnc2c1c(-c1cc(F)c(Cl)c(F)c1)nn2[C@@H]1O[C@H](CO)[C@@H](O)[C@H]1O , give its measured CC50 at 120 h value.
> 64 µM

State its CC50 at 120 h: C=Cc1nn([C@@H]2O[C@H](CO)[C@@H](O)[C@H]2O)c2ncnc(N)c12
32 µM

Proceeding to the next compound to report its CC50 at 120 h.
Report CC50 at 120 h for O=c1[nH]cnc2c1c(Br)nn2[C@@H]1O[C@H](CO)[C@@H](F)[C@H]1O
> 64 µM

====

Test system: Trypanosoma cruzi
experiment description: Antitrypanosomal activity against nifurtimox-sensitive Trypanosoma cruzi Tulahuen CL2 infected in Swiss mouse peritoneal macrophages assessed as inhibition of parasite growth measured after 7 days in presence of ABC transporter inhibitor, cyclosporine A by spectrophotometric analysis
Type: functional, organism-based
protocol conditions: Tulahuen CL2, Peritoneal macrophage, 168 h
pIC50: −log10 of the molar value.
measure name: pIC50

Assign pIC50 to the following record: Nc1ncnc2c1c(-c1ccc(Cl)cc1)nn2[C@@H]1O[C@H](CO)[C@@H](O)[C@H]1O
< 4.19

====

experiment description: Cytotoxicity against human MRC-5 SV2 cells assessed as reduction in cell growth measured after 3 days by resazurin dye based fluorometric analysis
protocol conditions: time 3 day
measure name: CC50 at 72 h

Here's what some known entries look like.
Please look at this compound and report its CC50 at 72 h: NC(=O)c1nn([C@@H]2O[C@H](CO)[C@@H](O)[C@H]2O)c2ncnc(N)c12
0.25 µM

Please report the measured CC50 at 72 h for Oc1ncnc2[nH]nc(Br)c12
> 64 µM

State its CC50 at 72 h: Nc1ncnc2c1c(-c1cc(F)c(Cl)c(F)c1)nn2[C@@H]1O[C@H](CO)[C@@H](O)[C@H]1O
> 64 µM

Please supply the value of reported CC50 at 72 h for the item COc1cc(-c2nn([C@@H]3O[C@H](CO)[C@@H](O)[C@H]3O)c3ncnc(N)c23)ccc1Cl
> 64 µM

Identify the reported CC50 at 72 h for the following entry. Cc1csc(-c2nn([C@@H]3O[C@H](CO)[C@@H](O)[C@H]3O)c3ncnc(N)c23)c1
> 64 µM

Look at each compound and report its CC50 at 72 h.
1. Nc1ncnc2c1c(C(F)F)nn2[C@@H]1O[C@H](CO)[C@@H](O)[C@H]1O
2. N#Cc1ccc(-c2nn([C@@H]3O[C@H](CO)[C@@H](O)[C@H]3O)c3ncnc(N)c23)cc1
3. CNC(=O)c1nn([C@@H]2O[C@H](CO)[C@@H](O)[C@H]2O)c2ncnc(N)c12
4. Nc1ncnc2c1c(-c1ccc([N+](=O)[O-])cc1)nn2[C@@H]1O[C@H](CO)[C@@H](O)[C@H]1O

1: 2.42 µM; 2: > 64 µM; 3: > 64 µM; 4: > 64 µM
